Reference for the values: patent US20230271954A1

ASSAYED_TARGET: DGKζ (Homo sapiens)
Sequence (Q13574 1-929 isoform Q13574-4): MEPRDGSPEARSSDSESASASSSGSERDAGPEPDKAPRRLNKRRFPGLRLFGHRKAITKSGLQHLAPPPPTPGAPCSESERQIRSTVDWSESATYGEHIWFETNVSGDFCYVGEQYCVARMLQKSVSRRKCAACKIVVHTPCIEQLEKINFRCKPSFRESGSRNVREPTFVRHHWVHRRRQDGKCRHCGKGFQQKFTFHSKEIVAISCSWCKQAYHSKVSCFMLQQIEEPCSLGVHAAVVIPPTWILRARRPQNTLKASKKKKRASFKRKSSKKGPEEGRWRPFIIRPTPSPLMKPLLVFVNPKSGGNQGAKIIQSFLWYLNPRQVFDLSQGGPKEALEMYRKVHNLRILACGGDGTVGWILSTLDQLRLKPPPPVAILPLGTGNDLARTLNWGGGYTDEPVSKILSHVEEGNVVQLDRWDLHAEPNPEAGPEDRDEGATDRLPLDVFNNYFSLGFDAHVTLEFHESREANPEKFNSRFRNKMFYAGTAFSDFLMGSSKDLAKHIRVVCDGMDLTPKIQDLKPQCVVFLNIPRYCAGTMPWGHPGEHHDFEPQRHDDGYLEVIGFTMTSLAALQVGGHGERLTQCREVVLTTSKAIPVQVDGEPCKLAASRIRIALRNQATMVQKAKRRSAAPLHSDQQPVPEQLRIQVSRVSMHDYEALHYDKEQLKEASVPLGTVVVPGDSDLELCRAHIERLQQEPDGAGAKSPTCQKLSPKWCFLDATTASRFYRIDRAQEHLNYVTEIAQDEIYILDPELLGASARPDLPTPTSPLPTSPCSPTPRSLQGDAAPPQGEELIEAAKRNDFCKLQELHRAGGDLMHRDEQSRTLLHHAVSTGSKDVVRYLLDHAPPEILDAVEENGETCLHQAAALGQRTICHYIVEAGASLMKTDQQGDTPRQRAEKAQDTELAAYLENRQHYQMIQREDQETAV
Reported IC50 values for the following compounds.

| COMPOUND_STRUCTURE_STRING | IC50 |
| --- | --- |
| Cc1nc(F)ccc1N(CC1CCC1)[C@H]1CC[C@H](N(C)c2c(C#N)c(=O)n(C)c3ccc(C#N)nc23)CC1 | 100 to 1000 nM |
| Cc1cc(F)cc(N(CC2CC2)[C@H]2CC[C@H](N(C)c3c(C#N)c(=O)n(C)c4ccc(C#N)nc34)CC2)c1 | 100 to 1000 nM |

// next entry
Input: Give IC50 only, for Cn1c(=O)c(C#N)c(N(C)[C@H]2CC[C@@H](N(C[C@@H]3CCCOC3)c3ccc4c(c3)OCO4)CC2)c2nc(C#N)ccc21 , using DGKζ (Homo sapiens) data.
Output: 10 to 100 nM

###

The following compounds have recorded IC50 on DGKα (Homo sapiens, UniProt P23743).
Sequence (P23743 whole entry): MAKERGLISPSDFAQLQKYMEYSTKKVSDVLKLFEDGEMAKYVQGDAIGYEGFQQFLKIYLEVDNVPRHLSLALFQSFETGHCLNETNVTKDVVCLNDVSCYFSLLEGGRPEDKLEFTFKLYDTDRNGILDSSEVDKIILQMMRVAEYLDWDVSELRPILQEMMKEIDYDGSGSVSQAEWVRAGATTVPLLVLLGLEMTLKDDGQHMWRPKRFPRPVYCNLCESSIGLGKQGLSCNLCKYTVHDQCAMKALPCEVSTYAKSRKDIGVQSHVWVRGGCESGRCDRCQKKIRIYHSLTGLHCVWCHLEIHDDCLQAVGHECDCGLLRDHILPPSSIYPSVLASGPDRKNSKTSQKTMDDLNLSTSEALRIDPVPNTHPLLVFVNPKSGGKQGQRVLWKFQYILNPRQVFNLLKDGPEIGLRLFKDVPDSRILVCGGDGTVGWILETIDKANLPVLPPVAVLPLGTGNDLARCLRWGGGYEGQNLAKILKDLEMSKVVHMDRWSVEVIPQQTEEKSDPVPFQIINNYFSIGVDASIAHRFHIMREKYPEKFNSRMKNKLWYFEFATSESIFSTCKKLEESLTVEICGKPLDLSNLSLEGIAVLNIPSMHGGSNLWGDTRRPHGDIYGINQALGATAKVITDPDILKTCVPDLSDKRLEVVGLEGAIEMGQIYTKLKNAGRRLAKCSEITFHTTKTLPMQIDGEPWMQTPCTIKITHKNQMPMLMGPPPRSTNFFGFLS

| COMPOUND | IC50 |
| --- | --- |
| Cn1c(=O)c(C#N)c(N(C)[C@H]2CC[C@H](N(c3ccc(F)cc3)C3CC3)CC2)c2nc(Cl)ccc21 [Example 3F] | 10 to 100 nM |
| Cc1cc(F)ccc1N(CC1CCC1)[C@H]1CC[C@H](N(C)c2c(C#N)c(=O)n(C)c3ccc(C#N)nc23)CC1 [Example 106] | 100 to 1000 nM |
| CN1Cc2ccc(N(CC3CC3)[C@H]3CC[C@@H](N(C)c4c(C#N)c(=O)n(C)c5ccc(C#N)nc45)CC3)cc2C1=O [Example 204] | ≥ 1000 nM |

// next entry
Input: # return recorded IC50 for input Cn1c(=O)c(C#N)c(N(C)[C@H]2CC[C@H](N(CC3COCCO3)c3ccc(F)cc3)CC2)c2nc(C#N)ccc21 (stereo partly shown) [Example 149]
Output: 100 to 1000 nM

###

The following compounds have recorded IC50 on DGKα (Homo sapiens).

| COMPOUND_STRUCTURE_STRING | EXPERIMENTAL_READOUT | MEASURED_RESULT |
| --- | --- | --- |
| Cn1c(=O)c(C#N)c(N(C)[C@H]2CC[C@H](N(CC3CCC3)c3cccc4c3OCO4)CC2)c2nc(Cl)ccc21 | IC50 | < 10 nM |

Input: # return recorded IC50 for input Cn1c(=O)c(C#N)c(N(C)[C@H]2CC[C@H](N(c3ccccc3O)C3CC3)CC2)c2nc(Cl)ccc21
Output: 10 to 100 nM

Input: # return recorded IC50 for input Cn1c(=O)c(C#N)c(N(C)[C@H]2CC[C@@H](N(c3ccc(F)cc3)C3CCC3)CC2)c2nc(Cl)ccc21
Output: < 10 nM

Input: # return recorded IC50 for input Cc1cc(F)c(F)cc1N(CC1CCC1)[C@H]1CC[C@H](N(C)c2c(C#N)c(=O)n(C)c3ccc(C#N)nc23)CC1
Output: ≥ 1000 nM

###

The following molecules have recorded IC50 on DGKζ (Homo sapiens).

Input: Give IC50 only, for Cn1c(=O)c(C#N)c(N(C)[C@H]2CC[C@H](N(CC3CCCOC3)c3ccc(F)cc3)CC2)c2nc(C#N)ccc21 (relative stereo) [Example 58] , using DGKζ (Homo sapiens) data.
Output: ≥ 1000 nM

Input: Give IC50 only, for Cn1c(=O)c(C#N)c(N(C)[C@H]2CC[C@@H](N(CC3CC3)c3cc4c(cn3)OCO4)CC2)c2nc(C#N)ccc21 [Example 213] , using DGKζ (Homo sapiens) data.
Output: 100 to 1000 nM

Input: Give IC50 only, for Cn1c(=O)c(C#N)c(N(C)[C@H]2CC[C@H](N(c3ccc(F)cc3)C3CCC3)CC2)c2nc(C#N)ccc21 [Example 19] , using DGKζ (Homo sapiens) data.
Output: 100 to 1000 nM

Input: Give IC50 only, for Cn1c(=O)c(C#N)c(N(C)[C@H]2CC[C@@H](N(C[C@H]3C[C@H](O)C3)c3ccc(F)cc3)CC2)c2nc(C#N)ccc21 [Example 201] , using DGKζ (Homo sapiens) data.
Output: ≥ 1000 nM

Input: Give IC50 only, for Cc1cc(F)ccc1N(CC1CC1)[C@H]1CC[C@@H](N(C)c2cc(=O)n(C)c3ccc(C#N)nc23)CC1 [Example 144] , using DGKζ (Homo sapiens) data.
Output: 100 to 1000 nM

Input: Give IC50 only, for Cn1c(=O)c(C#N)c(N(C)[C@H]2CC[C@H](N(CC3CC3)c3ccc(F)cc3)CC2)c2nc(C#N)ccc21 [Example 54] , using DGKζ (Homo sapiens) data.
Output: 100 to 1000 nM

Input: Give IC50 only, for Cn1c(=O)c(C#N)c(N(C)[C@H]2CC[C@H](N(CC3CC3)c3ccc(F)c(CN4CCOCC4)c3)CC2)c2nc(C#N)ccc21 [Example 174] , using DGKζ (Homo sapiens) data.
Output: 100 to 1000 nM

Input: Give IC50 only, for Cn1c(=O)c(C#N)c(N(C)[C@H]2CC[C@@H](N(c3ccc(F)cc3)C3CC3)CC2)c2nc(Cl)ccc21 [Example 51] , using DGKζ (Homo sapiens) data.
Output: 100 to 1000 nM

Input: Give IC50 only, for COc1cccc(N(CC2CC2)[C@H]2CC[C@H](N(C)c3c(C#N)c(=O)n(C)c4cccnc34)CC2)c1 [Example 13] , using DGKζ (Homo sapiens) data.
Output: ≥ 1000 nM

Input: Give IC50 only, for Cn1c(=O)c(C#N)c(N(C)[C@H]2CC[C@H](N(CC3CCOCC3)c3ccc(F)cc3)CC2)c2nc(C#N)ccc21 [Example 59] , using DGKζ (Homo sapiens) data.
Output: 100 to 1000 nM

Input: Give IC50 only, for Cn1c(=O)c(C#N)c(N(C)[C@H]2CC[C@@H](N(CC3CCC3)c3ccc4c(c3)OCCO4)CC2)c2nc(C#N)ccc21 [Example 170] , using DGKζ (Homo sapiens) data.
Output: 10 to 100 nM

Input: Give IC50 only, for Cn1c(=O)cc(N(C)[C@H]2CC[C@@H](N(CC3COCCO3)c3ccc(F)cc3)CC2)c2nc(C#N)ccc21 (some centres unmarked) [Example 163] , using DGKζ (Homo sapiens) data.
Output: 100 to 1000 nM

Input: Give IC50 only, for Cc1cc(F)ncc1N(CC1CCC1)[C@H]1CC[C@H](N(C)c2c(C#N)c(=O)n(C)c3ccc(C#N)nc23)CC1 [Example 140] , using DGKζ (Homo sapiens) data.
Output: 10 to 100 nM

Input: Give IC50 only, for Cc1cc(F)ccc1N(CC1CC1)[C@H]1CC[C@H](N(C)c2c(C#N)c(=O)n(C)c3ccc(C#N)nc23)CC1 [Example 73] , using DGKζ (Homo sapiens) data.
Output: 10 to 100 nM

###

pIC50: −log10 of the molar value.
The following compounds have recorded pIC50 on DGKζ (Homo sapiens).

Past entries and their recorded results:
| COMPOUND | ASSAYED_TARGET | EXPERIMENTAL_READOUT | MEASURED_RESULT |
| --- | --- | --- | --- |
| Cc1cc(F)ccc1N(CC1CC(F)(F)C1)[C@H]1CC[C@@H](N(C)c2cc(=O)n(C)c3ccc(C#N)nc23)CC1 [Example 184] | DGKζ (Homo sapiens) | pIC50 | 7.00 to 8.00 |
| Cn1c(=O)c(C#N)c(N(C)[C@H]2CC[C@@H](N(CC3CCC3)c3cccc4c3OCO4)CC2)c2nc(Cl)ccc21 [Example 110] | DGKζ (Homo sapiens) | pIC50 | 6.00 to 7.00 |
| Cn1c(=O)c(C#N)c(N(C)[C@H]2CC[C@H](N(CC3CC3)c3ccc4c(c3)OCO4)CC2)c2nc(C#N)ccc21 [Example 79] | DGKζ (Homo sapiens) | pIC50 | 6.00 to 7.00 |
| Cn1c(=O)c(C#N)c(N(C)[C@H]2CC[C@@H](N(CC3CCOC3)c3ccc(F)cc3)CC2)c2nc(C#N)ccc21 (relative stereo) [Example 55] | DGKζ (Homo sapiens) | pIC50 | 7.00 to 8.00 |
| Cn1c(=O)c(C#N)c(N(C)[C@H]2CC[C@H](N(CC3CCC3)c3cccc4c3OCO4)CC2)c2nc(C#N)ccc21 [Example 112] | DGKζ (Homo sapiens) | pIC50 | 6.00 to 7.00 |
| COc1cc(N(CC2CC2)[C@H]2CC[C@H](N(C)c3c(C#N)c(=O)n(C)c4ccc(Cl)nc34)CC2)cc(F)c1F [Example 85] | DGKζ (Homo sapiens) | pIC50 | ≤ 6.00 |
| Cn1c(=O)c(C#N)c(N(C)[C@H]2CC[C@@H](N(CC3CC3)c3ccc(Cl)cc3)CC2)c2ncccc21 [Example 8] | DGKζ (Homo sapiens) | pIC50 | ≤ 6.00 |
| Cn1c(=O)c(C#N)c(N(C)[C@H]2CC[C@H](N(CC3CCC3)c3ccc4c(c3)OCCO4)CC2)c2nc(C#N)ccc21 [Example 171] | DGKζ (Homo sapiens) | pIC50 | 6.00 to 7.00 |
| COc1cc(F)ccc1N(C1CC1)[C@H]1CC[C@H](N(C)c2c(C#N)c(=O)n(C)c3ccc(C#N)nc23)CC1 [Example 37] | DGKζ (Homo sapiens) | pIC50 | 6.00 to 7.00 |
| Cn1c(=O)c(C#N)c(N(C)[C@H]2CC[C@H](N(CC3CCC3)c3ccc(CCN4CCOCC4)cc3)CC2)c2nc(C#N)ccc21 [Example 172] | DGKζ (Homo sapiens) | pIC50 | ≤ 6.00 |

Input: # return recorded pIC50 for input Cn1c(=O)cc(N(C)[C@H]2CC[C@@H](N(CC3COCCO3)c3ccc4c(c3)OCO4)CC2)c2nc(C#N)ccc21 (stereo partly drawn) [Example 181]
Output: 6.00 to 7.00

Input: # return recorded pIC50 for input Cn1c(=O)c(C#N)c(N(C)[C@H]2CC[C@@H](N(C[C@@H]3CCCOC3)c3ccc(F)cc3)CC2)c2nc(C#N)ccc21 [Example 69]
Output: 7.00 to 8.00

Input: # return recorded pIC50 for input Cn1c(=O)c(C#N)c(N(C)[C@H]2CC[C@@H](N(CC3COCCO3)c3ccc4c(c3)OCO4)CC2)c2nc(C#N)ccc21 (stereo partly drawn) [Example 177]
Output: > 8.00

Input: # return recorded pIC50 for input COc1cc(F)ccc1N(CC1CC1)[C@H]1CC[C@H](N(C)c2cc(=O)n(C)c3ccc(C#N)nc23)CC1 [Example 3Y]
Output: ≤ 6.00
